Assay: collision cross section of modified peptide (TIMS, N2, iRT-aligned); higher = larger / more extended gas-phase ion
Settings: charge state: 2; modification: Methyl (K)
readout kind: collision cross section (Å²)
All answers are understood in Å², so give the number only.

Given the sequence LDEKENLSAK [_LDEK(Methyl (K))ENLSAK_] , what is its reported collision cross section?
366.29

# collision cross section lookup, item GFCFITYTDEEPVKK [_GFCFITYTDEEPVK(Methyl (K))K_]
460.43

Dear colleague, I am looking for the recorded collision cross section of the following sequence: LLEQKTQESQK [_LLEQK(Methyl (K))TQESQK_]
404.61

collision cross section for LLIVSTTPYSEKDTK [_LLIVSTTPYSEK(Methyl (K))DTK_] ?
465.27

Give the measured collision cross section of VNVEAPDVNLEGLGGKLK [_VNVEAPDVNLEGLGGK(Methyl (K))LK_] .
464.13

Give its collision cross section value. Item: LLFSNTAAQKLR [_LLFSNTAAQK(Methyl (K))LR_]
416.21

Look up collision cross section for this sequence: VGLQVVAVKAPGFGDNR [_VGLQVVAVK(Methyl (K))APGFGDNR_]
454.02

Reported collision cross section for VDIDVPDVNIEGPDAKLK [_VDIDVPDVNIEGPDAK(Methyl (K))LK_] : what is it?
457.57

Please report the recorded collision cross section for ALASIDSKLNQAK [_ALASIDSK(Methyl (K))LNQAK_] .
411.6

Given the sequence DLGKFQVATDALK [_DLGK(Methyl (K))FQVATDALK_] , what is its reported collision cross section?
399.05

For the sequence shown here, AGPNASIISLKSDK [_AGPNASIISLK(Methyl (K))SDK_] , give the reported collision cross section.
413.97

Returns the measured collision cross section for the input sequence. Input: VGEFSGANKEK [_VGEFSGANK(Methyl (K))EK_]
374.84

Which collision cross section value is on record for SLGEPAAGEGSAKR [_SLGEPAAGEGSAK(Methyl (K))R_] ?
408.5

Reported collision cross section for SGKFTQQDIDEAK [_SGK(Methyl (K))FTQQDIDEAK_] : what is it?
408.84

Which collision cross section is reported for this sequence? ASAISIKLGSSK [_ASAISIK(Methyl (K))LGSSK_]
369.46

// query collision cross section value for entry TEVLSPNSKVESK [_TEVLSPNSK(Methyl (K))VESK_]
412.51

Need collision cross section of PSVGSQSNQAGQGKR [_PSVGSQSNQAGQGK(Methyl (K))R_] , thanks.
426.09

Could you share which collision cross section value was measured for ASNAAVKLAESK [_ASNAAVK(Methyl (K))LAESK_] ?
380.84

I am curious: what collision cross section value has been reported for DAEAAEATAEGALKAEK [_DAEAAEATAEGALK(Methyl (K))AEK_] ?
456.59

Given DHLSDKESK [_DHLSDK(Methyl (K))ESK_] , state its recorded collision cross section.
345.4
